B1: glmS ribozyme (parent)
chain: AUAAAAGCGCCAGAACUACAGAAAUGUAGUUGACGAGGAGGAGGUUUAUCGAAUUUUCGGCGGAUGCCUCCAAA

variants of: B1; test: self-cleavage kobs at 160 uM GlcN6P; higher = faster cleavage; RNA array; details: with glucosamine-6-phosphate
Variants at the floor of the assay were thinned out.
endpoint: self-cleavage kobs at 160 uM GlcN6P

Here are 5 variants together with their reported answers.
Entry under review: G7U G9U . Reported self-cleavage kobs at 160 uM GlcN6P?
< 1e-05 s⁻¹

Follow-up item: G44C G51U C68G
< 1e-05 s⁻¹

Follow-up item: C10G G40A C70A
< 1e-05 s⁻¹

Follow-up item: G38C A52C
< 1e-05 s⁻¹

Follow-up item: A39G U55C
0.00406 s⁻¹

---
Entry under review: U46G U69A . Reported self-cleavage kobs at 160 uM GlcN6P?
9.88e-05 s⁻¹
